Entry source: ChEMBL document CHEMBL2401695

# TEST PROTOCOL: Growth inhibition of human GIST48B cells after 72 hrs by SRB assay
# Format: cell-based
RESULT TYPE: GI50 at 72 h

Recorded results for 2 compounds are shown here.
| LINE NOTATION | GI50 at 72 h |
| --- | --- |
| CC(C)(C)c1cc(NC(=O)Nc2ccc(Nc3ncnc4ccccc34)cc2)n(-c2cccc([N+](=O)[O-])c2)n1 | ≥ 30 µM |
| CC(C)(C)c1cc(NC(=O)Nc2ccc(Nc3ncnc4ccccc34)cc2)n(-c2cccc(N)c2)n1 | ≥ 30 µM |

Input line: Find the recorded GI50 at 72 h belonging to Nc1ccc2ncnc(Nc3ccc(NC(=O)Nc4ccc(Cl)c(C(F)(F)F)c4)cc3)c2c1 and report it.
Output line: > 30 µM
